B1: VH:VL chains; a variant is named by its letters at X, in order (parent)
chain 1: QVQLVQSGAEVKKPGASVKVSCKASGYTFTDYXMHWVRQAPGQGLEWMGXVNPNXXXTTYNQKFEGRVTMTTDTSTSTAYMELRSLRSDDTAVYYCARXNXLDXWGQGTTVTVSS
chain 2: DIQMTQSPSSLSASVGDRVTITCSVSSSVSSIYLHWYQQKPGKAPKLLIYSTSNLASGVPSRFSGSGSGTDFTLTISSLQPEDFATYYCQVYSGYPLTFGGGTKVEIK

Variants of: B1
Assay: yeast display scFab, FACS + sequencing
Details: with MET
This is one part of the list. No count for the full screen is at hand.
MEASURED ENDPOINT: antigen binding call

Use the examples below as a reference point.
{"columns": ["MUTATION", "OBSERVED RESULT"],
 "data": [
  ["YRAKGALF", "binds"],
  ["VKGRADVD", "no binding"],
  ["YRTEGAVA", "binds"],
  ["YRKGGAVD", "binds"],
  ["YRKRGSLY", "binds"]
]}

I need antigen binding call for every entry listed below, if you could help.
1. VETGNDLV
2. YRKGSSAA
3. YAAKTAAA
4. YRKGGSAA
5. VRKGGSGV
6. DTTRDDSD

Response:
["no binding", "binds", "no binding", "binds", "binds", "no binding"]

Would you mind giving antigen binding call for every variant in the list below?
1. YRKRGAVD
2. SGRGNSGV
3. DAEEDAGY
4. YRKRGAGD
5. DREEGAVA
6. DAGKGALF

Response:
binds
no binding
no binding
binds
no binding
no binding

Kindly give each listed record's antigen binding call.
1. YRRGAAAA
2. YRKRGAAD
3. VEKGGSGV
4. YAKRDAGD
5. DTAGDAVV

Response:
1: binds; 2: binds; 3: no binding; 4: no binding; 5: no binding
